- PROTOCOL TEXT: Pharmacokinetic study in male Sprague Dawley rats
- Format: in vivo
- SETTINGS: male, Sprague Dawley, rat, plasma, iv, 2 mg/kg, Intravenous (Dose: 2 mg/kg), two compartment model, read-out: Cl (total body clearance) (converted)

>  <STRUCTURE SMILES STRING>
Oc1c(Br)cc(Cl)c2cccnc12

>  <UNIT OF MEASURE>
mL/min/kg

>  <clearance>
2.17

$$$$

====

- PROTOCOL TEXT: Pharmacokinetic study in male Sprague Dawley rats
- Assay type: in vivo
- SETTINGS: male, Sprague Dawley, rat, plasma, sc, 10 mg/kg, Subcutaneous (Dose: 10 mg/kg), two compartment model, read-out: T1/2abs (absorption half-life) (converted)
MEASURED ENDPOINT: half-life (min)

>  <COMPOUND>
Oc1c(Br)cc(Cl)c2cccnc12 [Compound 5, 7-bromo-5-chloroquinolin-8-ol]

>  <MEASURED ENDPOINT>
half-life

>  <MEASURED NUMBER>
22.6

$$$$

====

- PROTOCOL TEXT: Pharmacokinetic study in male Sprague Dawley rats
- Assay type: in vivo
- SETTINGS: male, Sprague Dawley, rat, plasma, iv, 2 mg/kg, Intravenous (Dose: 2 mg/kg), two compartment model, read-out: VD (volume of distribution)

>  <COMPOUND>
Oc1c(Br)cc(Cl)c2cccnc12 [Compound 5, 7-bromo-5-chloroquinolin-8-ol]

>  <UNIT OF MEASURE>
L/kg

>  <Vd>
21.6

$$$$

====

Entries annotated with measured pIC50
- TARGET OR TEST SYSTEM: MtMetAP1c (Mycobacterium tuberculosis)
- Sequence (P9WK19 whole entry): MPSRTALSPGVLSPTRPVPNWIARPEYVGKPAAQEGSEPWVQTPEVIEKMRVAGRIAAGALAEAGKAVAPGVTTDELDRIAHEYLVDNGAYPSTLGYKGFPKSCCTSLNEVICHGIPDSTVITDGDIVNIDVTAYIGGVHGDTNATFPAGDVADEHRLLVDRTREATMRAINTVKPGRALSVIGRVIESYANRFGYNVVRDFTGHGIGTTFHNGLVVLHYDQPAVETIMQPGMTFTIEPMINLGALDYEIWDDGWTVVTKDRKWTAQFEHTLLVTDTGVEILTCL
- PROTOCOL TEXT: MetAP enzyme inhibition IC50 (Met-Pro-pNA coupled assay)
- Type: biochemical
pIC50: −log10 of the molar value.

>  <MOLECULE>
Oc1ccccc1/C=N/Nc1ncnc2sc3c(c12)CCCC3 [drawing 23]

>  <PREFIX OPERATOR>
>

>  <pIC50>
4.52

$$$$
>  <MOLECULE>
O=C(N/N=C/c1c(O)ccc2ccccc12)c1ccncc1 [drawing 22]

>  <PREFIX OPERATOR>
=

>  <pIC50>
5.28

$$$$

====

- PROTOCOL TEXT: Pharmacokinetic study in male Sprague Dawley rats
- Type: in vivo
- SETTINGS: male, Sprague Dawley, rat, plasma, iv, 2 mg/kg, Intravenous (Dose: 2 mg/kg), non-compartmental analysis, read-out: T1/2 (elimination half-life) (converted)

>  <COMPOUND>
Oc1c(Br)cc(Cl)c2cccnc12 [Compound 5, 7-bromo-5-chloroquinolin-8-ol]

>  <UNIT OF MEASURE>
h

>  <half-life>
176

$$$$

====

- PROTOCOL TEXT: Pharmacokinetic study in male Sprague Dawley rats
- Format: in vivo
- SETTINGS: male, Sprague Dawley, rat, plasma, sc, 10 mg/kg, Subcutaneous (Dose: 10 mg/kg), non-compartmental analysis, read-out: T1/2 (elimination half-life) (converted)

>  <STRUCTURE SMILES STRING>
Oc1c(Br)cc(Cl)c2cccnc12

>  <half-life (min)>
2210

$$$$
